Experiment: melting temperature; fluorescence melt of hairpins on a sequencing array, two-state fit, raised by 9.35 °C to match UV melts
Conditions: sodium 0.088 M
Is Tm at least 50 °C? Then 1 (yes). If not, 0 (no).

GCAATGCGAAAGCAGTGC (((.(((....))).)))	1 (yes)

Problem: Threshold query (Tm >= 50 °C) on GATCCGACTACGGATC ((((((....))))))
Result: 1 (yes)

Problem: Threshold query (Tm >= 50 °C) on GGCATCGAAAGATCGGCC ((((((....)))..)))
Result: 0 (no)

Problem: Threshold query (Tm >= 50 °C) on GCGGACGGAAACGTCTGC ((.((((....)))).))
Result: 1 (yes)

Problem: Threshold query (Tm >= 50 °C) on GATCAACGAAAGTTTATC (((.(((....))).)))
Result: 0 (no)

Problem: Threshold query (Tm >= 50 °C) on GATCTCCTAGAGATC ((((((...))))))
Result: 1 (yes)

Problem: Threshold query (Tm >= 50 °C) on GATCCCTGAAGGGATC ((((((....))))))
Result: 1 (yes)

Problem: Threshold query (Tm >= 50 °C) on GAAGACCGAAAGGTGTTC (((.(((....))).)))
Result: 1 (yes)

Problem: Threshold query (Tm >= 50 °C) on GTTCGCGGAAACGCGGAC ((.((((....)))).))
Result: 1 (yes)

Problem: Threshold query (Tm >= 50 °C) on GTGGTTCGAAAGAAACAC (((.(((....))).)))
Result: 1 (yes)

* * *

Test: melting temperature; fluorescence melt of hairpins on a sequencing array, two-state fit, raised by 9.35 °C to match UV melts
Details: sodium 0.088 M
Is Tm at least 50 °C? Then T. If not, F.

Problem: Threshold query (Tm >= 50 °C) on GAGTGGCGAAAGCCCCTC (((.(((....))).)))
Result: F

Problem: Threshold query (Tm >= 50 °C) on GACCATGCGAAAGCAGTC (((..(((....))))))
Result: F

* * *

Experiment: folding enthalpy; higher = less favourable; fluorescence melt of hairpins on a sequencing array, two-state fit
Conditions: sodium 0.088 M
Is folding enthalpy at least -20 kcal/mol? Then y. If not, n.

Solved entries:
GTGGCGGGAAACTGCCAC (((((.(....).)))))	n
GCTCCCCCGAAAGGGAGC (((..(((....))))))	n
GAGAACGAAAGTTAGCTC ((((((....)))..)))	y

Problem: Threshold query (folding enthalpy >= -20 kcal/mol) on GCCTGCGCGAAAGCGGGC (((..(((....))))))
Result: y

Problem: Threshold query (folding enthalpy >= -20 kcal/mol) on GTGGAGCGAAAGCTCAC (((.(((....))))))
Result: y

Problem: Threshold query (folding enthalpy >= -20 kcal/mol) on GGATTGCGAAAGCATTCC (((.(((....))).)))
Result: n

Problem: Threshold query (folding enthalpy >= -20 kcal/mol) on GTGTTCTCGAAAGAGCAC (((..(((....))))))
Result: n

Problem: Threshold query (folding enthalpy >= -20 kcal/mol) on GCACTGCGAAAGCGTTGC (((..((....))..)))
Result: n

Problem: Threshold query (folding enthalpy >= -20 kcal/mol) on GTAATTGGAAACGATTAC (((((.(....).)))))
Result: n

Problem: Threshold query (folding enthalpy >= -20 kcal/mol) on GCTTCCGGAAACAGAAGC (((((.(....).)))))
Result: n

Problem: Threshold query (folding enthalpy >= -20 kcal/mol) on GCTTGGGGAAACTCGAGC (((.(.(....).).)))
Result: n
